Biological target: farnesoid X receptor (Homo sapiens)
Construct: fused on or other part: GST fused in frame to the N-terminus of the LBD (TR-FRET assay only); Nothing is fused on in the co-transfection assay
Test: one or more of the in vitro assays described herein (TR-FRET assay, Example 75; co-transfection assay, Example 76)
Settings: relative to maximum response of chenodeoxycholic acid (CDCA); read-out: efficacy
Measured Emax of individual entries

For orientation, consider the following solved cases.
1. CC(C)OC(=O)C1=CN(C(=O)c2ccc(F)c(F)c2)CC(C)(C)c2c1[nH]c1ccccc21	> 100%
2. CCOC(=O)C1=CN(C(=O)c2ccc(F)c(F)c2)CC2(CCCC2)c2c1[nH]c1ccccc21	> 100%
3. CCOC(=O)C1=CN(C(=O)c2ccc(F)c(F)c2)CC(C)(C)c2c1[nH]c1ccccc21	> 100%
4. CCOC(=O)C1=CN(C(=O)c2ccc(F)c(F)c2)CC(C)c2c1[nH]c1ccccc21 (centres unmarked)	> 100%

Now for a further molecule.
// query Tell me the measured Emax of CCOC(=O)C1=CN(C(=O)c2ccc(F)cc2)CC(C)(C)c2c1[nH]c1cc(OC(=O)NC3CCCCC3)ccc21 , please.
// result 10 to 30%

====

Target: farnesoid X receptor (Homo sapiens, UniProt Q96RI1)
Construct: fused on or other part: GST fused in frame to the N-terminus of the LBD (TR-FRET assay only); Nothing is fused on in the co-transfection assay
Sequence (Q96RI1 258-485 limits assumed): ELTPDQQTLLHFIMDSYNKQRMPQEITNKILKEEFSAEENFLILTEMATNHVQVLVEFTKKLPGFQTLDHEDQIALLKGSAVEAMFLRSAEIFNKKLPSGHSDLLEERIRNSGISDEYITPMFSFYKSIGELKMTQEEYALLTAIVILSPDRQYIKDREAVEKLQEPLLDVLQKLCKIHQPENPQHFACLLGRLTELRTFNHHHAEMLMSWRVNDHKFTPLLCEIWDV
Experiment: one or more of the in vitro assays described herein (TR-FRET assay, Example 75; co-transfection assay, Example 76)
Details: inhibition of the activity of CDCA; read-out: IC50 (antagonist / partial agonist)
measured_metric: IC50

// query Give its IC50 value. Item: CCOC(=O)C1=CN(C(=O)c2ccc(F)cc2)CC(C)(C)c2c1[nH]c1cc(OC(=O)NC3CC3)ccc21
// result < 100 nM

====

Target: farnesoid X receptor (Homo sapiens, UniProt Q96RI1)
Construct: fused on or other part: GST fused in frame to the N-terminus of the LBD (TR-FRET assay only); Nothing is fused on in the co-transfection assay
Assay: one or more of the in vitro assays described herein (TR-FRET assay, Example 75; co-transfection assay, Example 76)
Details: inhibition of the activity of CDCA; read-out: IC50 (antagonist / partial agonist)
Each entry below carries its recorded IC50.

Please review the following examples before continuing.
1. CCOC(=O)C1=CN(C(=O)c2ccc(F)cc2)CC(C)(C)c2c1[nH]c1ccc(N(Cc3ccccc3)C(=O)N(C)C)cc21	< 100 nM
2. CCOC(=O)C1=CN(C(=O)c2ccc(F)cc2)CC(C)(C)c2c1[nH]c1cc(N(C)C(=O)NC3CC3)ccc21	< 100 nM
3. CCOC(=O)C1=CN(C(=O)c2ccc(F)cc2)CC(C)(C)c2c1[nH]c1cc(OC(=O)NCc3cccnc3)ccc21	< 200 nM
4. CCOC(=O)C1=CN(C(=O)c2ccc(F)cc2)CC(C)(C)c2c1[nH]c1cc(OC(=O)NC(C)C)ccc21	< 100 nM
5. CCOC(=O)C1=CN(C(=O)c2ccc(F)cc2)CC(C)(C)c2c1[nH]c1cc(OC(=O)NCc3cccs3)ccc21	< 100 nM

Now for the compound whose IC50 we want.
// query Quick check: IC50 of CCOC(=O)C1=CN(C(=O)c2ccc(F)cc2)CC(C)(C)c2c1[nH]c1cc(OC(=O)NC3CCCCC3)ccc21 ?
// result < 200 nM

====

Target: farnesoid X receptor (Homo sapiens, UniProt Q96RI1)
Construct: fused on or other part: GST fused in frame to the N-terminus of the LBD (TR-FRET assay only); Nothing is fused on in the co-transfection assay
Test: one or more of the in vitro assays described herein (TR-FRET assay, Example 75; co-transfection assay, Example 76)
Conditions: relative to maximum response of chenodeoxycholic acid (CDCA); read-out: efficacy
measured_metric: Emax

1. CCOC(=O)C1=CN(C(=O)c2ccc(F)cc2)CC(C)(C)c2c1[nH]c1cc(OC(=O)NCc3cnc(C)cn3)ccc21	10 to 30%

// query Report Emax for CCOC(=O)C1=CN(C(=O)c2ccc(F)cc2)CC(C)(C)c2c1[nH]c1cc(OC(=O)NCCc3ccccn3)ccc21 please.
// result 10 to 30%

// query Reported Emax for CCOC(=O)C1=CN(C(=O)c2ccc(F)cc2)CC(C)(C)c2c1[nH]c1ccc(F)cc21 : what is it?
// result > 100%

// query Quick one: Emax for CC1Cc2c([nH]c3ccccc23)C(C(=O)NC2CCC2)=CN1C(=O)c1ccc(F)cc1 (stereo not drawn) ?
// result > 100%

// query Query (compound): CCOC(=O)C1=CN(C(=O)c2ccc(F)cc2)CC(C)(C)c2c1[nH]c1cc(OC(=O)NCc3cccnc3)ccc21 ; field requested: Emax
// result 10 to 30%

// query State the recorded Emax for this entry: CC(C)OC(=O)C1=CN(C(=O)c2ccc(F)c(F)c2)CC(C)c2c1[nH]c1ccccc21 (stereo not drawn)
// result > 100%

====

Biological target: farnesoid X receptor (Homo sapiens)
Construct: fused on or other part: GST fused in frame to the N-terminus of the LBD (TR-FRET assay only); Nothing is fused on in the co-transfection assay
Assay: one or more of the in vitro assays described herein (TR-FRET assay, Example 75; co-transfection assay, Example 76);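 further: TR-FRET assay or luciferase reporter in CV-1 monkey kidney cells co-transfected with human FXR and RXRα, dose-response over 8 half-log concentrations, CDCA added in antagonist mode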
Settings: inhibition of the activity of CDCA; read-out: IC50 (antagonist / partial agonist)
measured_metric: IC50

Solved cases (2 shown):
1. CCOC(=O)C1=CN(C(=O)c2ccc(F)cc2)CC(C)(C)c2c1[nH]c1cc(N(C)C(=O)NCc3ccccn3)ccc21	< 100 nM
2. CCOC(=O)C1=CN(C(=O)c2ccc(F)cc2)CC(C)(C)c2c1[nH]c1cc(OC(=O)NCCc3ccccn3)ccc21	< 200 nM

// query Quick check: IC50 on farnesoid X receptor (Homo sapiens), item CCOC(=O)C1=CN(C(=O)c2ccc(F)cc2)CC(C)(C)c2c1[nH]c1cc(OC(=O)NCc3cnc(C)cn3)ccc21 ?
// result < 200 nM

Data credit: patent US7485634B2
